EXPERIMENTAL_SYSTEM: CLK1 (Homo sapiens, UniProt P49759)
Construct: purchased Thermo Fisher Scientific
Sequence (P49759 whole entry): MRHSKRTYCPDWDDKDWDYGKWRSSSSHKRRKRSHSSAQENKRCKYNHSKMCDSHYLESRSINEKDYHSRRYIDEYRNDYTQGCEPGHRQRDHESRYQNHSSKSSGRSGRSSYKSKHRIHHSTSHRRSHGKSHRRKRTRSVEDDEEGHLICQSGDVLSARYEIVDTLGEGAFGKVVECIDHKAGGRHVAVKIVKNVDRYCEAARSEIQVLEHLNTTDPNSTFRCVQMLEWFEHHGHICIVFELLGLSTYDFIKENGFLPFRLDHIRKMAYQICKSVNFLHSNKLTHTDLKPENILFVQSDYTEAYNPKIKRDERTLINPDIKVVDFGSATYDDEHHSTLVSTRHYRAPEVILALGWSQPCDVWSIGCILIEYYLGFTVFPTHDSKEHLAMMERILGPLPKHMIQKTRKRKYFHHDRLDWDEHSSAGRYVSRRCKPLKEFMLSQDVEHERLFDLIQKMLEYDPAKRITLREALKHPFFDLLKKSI
TEST: Kinase panel study
Assay type: biochemical
CONDITION: CLK1; compound at 10µM; read-out: % of Inhibition
EXPERIMENTAL_READOUT: inhibition at 10 µM (%)

Below, 2 molecules whose answers are already recorded.
{"MOLECULE": "COc1ccc2nc3c(cc2c1)c(N)nn3C(=O)c1cccc(N(C)C)c1 [MW05-E2]", "inhibition at 10 µM (%)": 16}
{"MOLECULE": "O=c1c2cc(O)ccc2c2nccc3c4cc(O)ccc4n1c32", "inhibition at 10 µM (%)": 69}

a: O=c1c2cnccc2c2nccc3c4cc(O)ccc4n1c32
b: COc1ccc2c(c1)c1ccnc3c4ccnc(OC)c4c(=O)n2c13
c: COc1ccc2c(c1)c1ccnc3c4nc(OC)ccc4c(=O)n2c13
Please list these in order of increasing inhibition at 10 µM. Thank you! Output spec: a listing of the labels in the requested order.
b, c, a

* * *

EXPERIMENTAL_SYSTEM: BTK (Homo sapiens)
Construct: purchased Thermo Fisher Scientific
Sequence (Q06187 whole entry): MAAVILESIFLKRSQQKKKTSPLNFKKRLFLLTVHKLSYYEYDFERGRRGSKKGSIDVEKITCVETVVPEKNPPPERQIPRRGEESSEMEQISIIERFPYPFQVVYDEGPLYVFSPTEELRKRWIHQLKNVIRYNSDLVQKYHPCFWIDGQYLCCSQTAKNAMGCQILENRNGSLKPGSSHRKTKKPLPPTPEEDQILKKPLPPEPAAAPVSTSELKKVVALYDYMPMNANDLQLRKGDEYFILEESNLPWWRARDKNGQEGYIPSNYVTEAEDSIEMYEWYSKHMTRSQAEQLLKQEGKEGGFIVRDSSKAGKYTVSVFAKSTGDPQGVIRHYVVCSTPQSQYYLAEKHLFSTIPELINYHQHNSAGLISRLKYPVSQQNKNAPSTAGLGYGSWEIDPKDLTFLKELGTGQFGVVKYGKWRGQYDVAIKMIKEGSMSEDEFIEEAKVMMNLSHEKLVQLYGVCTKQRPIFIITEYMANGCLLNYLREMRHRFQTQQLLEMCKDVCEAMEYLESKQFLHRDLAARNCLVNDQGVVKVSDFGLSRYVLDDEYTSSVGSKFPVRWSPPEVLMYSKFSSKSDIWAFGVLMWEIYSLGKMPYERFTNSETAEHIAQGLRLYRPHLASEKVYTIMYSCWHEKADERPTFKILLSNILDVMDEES
TEST: Kinase panel study
Assay type: biochemical
CONDITION: BTK; compound at 10µM; read-out: % of Inhibition
EXPERIMENTAL_READOUT: inhibition at 10 µM (%)

Answered examples (2):
{"MOLECULE": "O=c1c2cnccc2c2nccc3c4cc(O)ccc4n1c32", "OBSERVED_VALUE": 30}
{"MOLECULE": "COc1ccc2c(c1)c1ccnc3c4ccnc(OC)c4c(=O)n2c13", "OBSERVED_VALUE": 29}

P: O=c1c2cc(O)ccc2c2nccc3c4cc(O)ccc4n1c32
Q: COc1ccc2c(c1)c1ccnc3c4nc(OC)ccc4c(=O)n2c13
R: COc1ccc2nc3c(cc2c1)c(N)nn3C(=O)c1cccc(N(C)C)c1 [MW05-E2]
Hey, quick one: sort these by inhibition at 10 µM, low to high? Lab note: final answer is the ordered label list.
R, Q, P
(R: 7%, Q: 30%, P: 69%)

* * *

EXPERIMENTAL_SYSTEM: CLK2 (Homo sapiens, UniProt P49760)
Construct: purchased Thermo Fisher Scientific
Sequence (P49760 whole entry): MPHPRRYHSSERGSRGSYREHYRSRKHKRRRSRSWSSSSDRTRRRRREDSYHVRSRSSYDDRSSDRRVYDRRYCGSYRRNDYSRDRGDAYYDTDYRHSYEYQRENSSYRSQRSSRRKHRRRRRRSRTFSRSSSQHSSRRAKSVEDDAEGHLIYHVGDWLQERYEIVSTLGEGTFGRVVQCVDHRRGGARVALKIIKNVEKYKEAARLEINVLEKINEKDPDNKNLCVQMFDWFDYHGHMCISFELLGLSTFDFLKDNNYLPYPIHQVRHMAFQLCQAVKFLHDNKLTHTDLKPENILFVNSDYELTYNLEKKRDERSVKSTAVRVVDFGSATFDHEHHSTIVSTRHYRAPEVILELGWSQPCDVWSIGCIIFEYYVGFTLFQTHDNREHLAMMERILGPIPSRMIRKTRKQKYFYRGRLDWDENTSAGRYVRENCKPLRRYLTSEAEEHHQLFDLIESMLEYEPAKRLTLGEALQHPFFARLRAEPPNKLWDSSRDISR
TEST: Kinase panel study
Assay type: biochemical
CONDITION: CLK2; compound at 10µM; read-out: % of Inhibition
EXPERIMENTAL_READOUT: inhibition at 10 µM (%)

Take a look at these entries with their results.
{"COMPOUND": "COc1ccc2c(c1)c1ccnc3c4ccnc(OC)c4c(=O)n2c13", "inhibition at 10 µM [%]": 20}
{"COMPOUND": "COc1ccc2nc3c(cc2c1)c(N)nn3C(=O)c1cccc(N(C)C)c1 [MW05-E2]", "inhibition at 10 µM [%]": 74}
{"COMPOUND": "O=c1c2cnccc2c2nccc3c4cc(O)ccc4n1c32", "inhibition at 10 µM [%]": 70}

I: O=c1c2cc(O)ccc2c2nccc3c4cc(O)ccc4n1c32
II: COc1ccc2c(c1)c1ccnc3c4nc(OC)ccc4c(=O)n2c13
Kindly identify which of I and II has the larger recorded inhibition at 10 µM value. Your answer should be the label of the entry you select.
I

* * *

EXPERIMENTAL_SYSTEM: EGFR (ErbB1) (Homo sapiens, UniProt P00533)
Construct: purchased Thermo Fisher Scientific
TEST: Kinase panel study
Format: biochemical
CONDITION: EGFR (ErbB1); compound at 10µM; read-out: % of Inhibition
Experimental: The Kinase panel study was entirely provided by Thermo Fisher Scientific using the two lead compounds MW01 and MW05 as well as their derivatives (MW01-E06, MW01-E10, MW01-E14, MW01-E18, MW05-E2, MW05-E3, MW05-E9 and MW05-E10. The experiment was performed using the ZLyte or Adapta protocol according to manufacturer standard operating procedures. […]
EXPERIMENTAL_READOUT: inhibition at 10 µM (%)

Consider the reported inhibition at 10 µM for these compounds:
{"COMPOUND": "O=c1c2cc(O)ccc2c2nccc3c4cc(O)ccc4n1c32 [MW01-E10]", "OBSERVED_VALUE": 15}
{"COMPOUND": "COc1ccc2c(c1)c1ccnc3c4ccnc(OC)c4c(=O)n2c13 [MW01-E14]", "OBSERVED_VALUE": 9}

I: COc1ccc2c(c1)c1ccnc3c4nc(OC)ccc4c(=O)n2c13 [MW01-E6]
II: COc1ccc2nc3c(cc2c1)c(N)nn3C(=O)c1cccc(N(C)C)c1 [MW05-E2]
Could you check which of I and II has a smaller value for inhibition at 10 µM? Which one? Tell me its label.
I
(I: 11%, II: 33%)

* * *

EXPERIMENTAL_SYSTEM: FLT3 (Homo sapiens)
Construct: purchased Thermo Fisher Scientific
Sequence (P36888 27-993): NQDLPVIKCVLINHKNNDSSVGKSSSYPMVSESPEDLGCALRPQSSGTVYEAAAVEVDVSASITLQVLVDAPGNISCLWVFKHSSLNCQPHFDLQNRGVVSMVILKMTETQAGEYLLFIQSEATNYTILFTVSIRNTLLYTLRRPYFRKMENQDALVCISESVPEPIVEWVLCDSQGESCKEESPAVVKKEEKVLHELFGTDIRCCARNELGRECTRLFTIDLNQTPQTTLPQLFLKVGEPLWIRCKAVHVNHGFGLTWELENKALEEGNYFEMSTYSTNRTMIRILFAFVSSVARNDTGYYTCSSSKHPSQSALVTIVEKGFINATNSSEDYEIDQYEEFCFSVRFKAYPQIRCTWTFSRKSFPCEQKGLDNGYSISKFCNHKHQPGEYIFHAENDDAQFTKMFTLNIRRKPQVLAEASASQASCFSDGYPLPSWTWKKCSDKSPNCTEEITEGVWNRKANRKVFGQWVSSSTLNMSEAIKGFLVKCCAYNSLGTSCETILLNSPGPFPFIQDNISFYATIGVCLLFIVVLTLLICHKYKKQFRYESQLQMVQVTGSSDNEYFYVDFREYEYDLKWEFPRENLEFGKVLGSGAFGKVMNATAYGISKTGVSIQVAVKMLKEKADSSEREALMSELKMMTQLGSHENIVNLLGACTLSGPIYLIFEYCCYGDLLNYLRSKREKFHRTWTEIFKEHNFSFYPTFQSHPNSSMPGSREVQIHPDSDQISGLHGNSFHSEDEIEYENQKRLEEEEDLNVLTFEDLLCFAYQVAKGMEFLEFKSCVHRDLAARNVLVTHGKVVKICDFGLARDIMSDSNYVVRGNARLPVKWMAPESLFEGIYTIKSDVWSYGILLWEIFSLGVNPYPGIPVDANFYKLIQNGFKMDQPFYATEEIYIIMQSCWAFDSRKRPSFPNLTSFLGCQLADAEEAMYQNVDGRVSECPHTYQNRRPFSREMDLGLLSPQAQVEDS
TEST: Kinase panel study
Format: biochemical
CONDITION: FLT3; compound at 10µM; read-out: % of Inhibition
EXPERIMENTAL_READOUT: inhibition at 10 µM (%)

{"MOLECULE": "COc1ccc2nc3c(cc2c1)c(N)nn3C(=O)c1cccc(N(C)C)c1 [MW05-E2]", "EXPERIMENTAL_READOUT": "inhibition at 10 µM", "OBSERVED_VALUE": 17}
{"MOLECULE": "O=c1c2cc(O)ccc2c2nccc3c4cc(O)ccc4n1c32", "EXPERIMENTAL_READOUT": "inhibition at 10 µM", "OBSERVED_VALUE": 27}

I: COc1ccc2c(c1)c1ccnc3c4nc(OC)ccc4c(=O)n2c13
II: O=c1c2cnccc2c2nccc3c4cc(O)ccc4n1c32
Just tell me: smaller inhibition at 10 µM value, I or II ? # respond with the chosen item's label
I
(I: 31%, II: 65%)

* * *

EXPERIMENTAL_SYSTEM: IRAK4 (Homo sapiens)
Construct: purchased Thermo Fisher Scientific
Sequence (Q9NWZ3 whole entry): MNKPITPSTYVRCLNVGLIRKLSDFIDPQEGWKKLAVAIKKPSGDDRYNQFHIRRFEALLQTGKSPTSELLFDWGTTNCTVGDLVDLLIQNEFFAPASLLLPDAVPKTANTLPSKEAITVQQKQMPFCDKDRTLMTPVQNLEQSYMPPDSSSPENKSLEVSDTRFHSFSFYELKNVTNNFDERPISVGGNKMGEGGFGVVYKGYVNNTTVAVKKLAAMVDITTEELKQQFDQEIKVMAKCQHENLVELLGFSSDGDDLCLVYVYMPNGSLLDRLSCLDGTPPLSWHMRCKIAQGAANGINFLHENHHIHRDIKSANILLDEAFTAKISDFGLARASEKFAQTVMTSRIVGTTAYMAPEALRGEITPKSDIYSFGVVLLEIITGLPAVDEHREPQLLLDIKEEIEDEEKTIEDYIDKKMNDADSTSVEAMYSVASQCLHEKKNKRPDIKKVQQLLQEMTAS
TEST: Kinase panel study
Format: biochemical
CONDITION: IRAK4; compound at 10µM; read-out: % of Inhibition
EXPERIMENTAL_READOUT: inhibition at 10 µM (%)

a: COc1ccc2c(c1)c1ccnc3c4nc(OC)ccc4c(=O)n2c13 [MW01-E6]
b: COc1ccc2nc3c(cc2c1)c(N)nn3C(=O)c1cccc(N(C)C)c1 [MW05-E2]
# return whichever of a and b has the smaller inhibition at 10 µM Returns: label corresponding to the selected item.
a
(a: -9%, b: -3%)

I: O=c1c2cnccc2c2nccc3c4cc(O)ccc4n1c32 [MW01-E18]
II: COc1ccc2c(c1)c1ccnc3c4ccnc(OC)c4c(=O)n2c13 [MW01-E14]
Could you point out whether the larger inhibition at 10 µM belongs to I or to II ? Which one? Tell me its label.
I
(I: 2%, II: -15%)

* * *

EXPERIMENTAL_SYSTEM: PIP4K2A (Homo sapiens)
Construct: purchased Thermo Fisher Scientific
Sequence (P48426 whole entry): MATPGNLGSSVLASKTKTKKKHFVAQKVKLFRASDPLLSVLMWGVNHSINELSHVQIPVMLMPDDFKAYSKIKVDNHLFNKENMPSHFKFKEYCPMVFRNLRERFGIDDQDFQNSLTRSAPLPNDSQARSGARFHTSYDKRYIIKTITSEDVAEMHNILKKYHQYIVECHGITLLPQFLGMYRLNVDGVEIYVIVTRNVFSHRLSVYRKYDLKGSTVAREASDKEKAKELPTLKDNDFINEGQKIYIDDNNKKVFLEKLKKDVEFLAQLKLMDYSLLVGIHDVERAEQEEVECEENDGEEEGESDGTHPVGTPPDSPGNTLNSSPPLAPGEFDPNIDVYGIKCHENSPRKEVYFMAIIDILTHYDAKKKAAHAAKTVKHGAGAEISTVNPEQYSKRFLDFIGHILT
TEST: Kinase panel study
Assay type: biochemical
CONDITION: PIP4K2A; compound at 10µM; read-out: % of Inhibition
EXPERIMENTAL_READOUT: inhibition at 10 µM (%)

Sample records with inhibition at 10 µM:
{"COMPOUND": "O=c1c2cnccc2c2nccc3c4cc(O)ccc4n1c32", "inhibition at 10 µM / %": -1}
{"COMPOUND": "COc1ccc2c(c1)c1ccnc3c4nc(OC)ccc4c(=O)n2c13", "inhibition at 10 µM / %": -4}
{"COMPOUND": "O=c1c2cc(O)ccc2c2nccc3c4cc(O)ccc4n1c32", "inhibition at 10 µM / %": -2}

P: COc1ccc2c(c1)c1ccnc3c4ccnc(OC)c4c(=O)n2c13
Q: COc1ccc2nc3c(cc2c1)c(N)nn3C(=O)c1cccc(N(C)C)c1 [MW05-E2]
When their inhibition at 10 µM values are compared, which is larger, P or Q ? State your choice using its label.
P

* * *

EXPERIMENTAL_SYSTEM: DYRK1B (Homo sapiens, UniProt Q9Y463)
Construct: purchased Thermo Fisher Scientific
Sequence (Q9Y463 whole entry): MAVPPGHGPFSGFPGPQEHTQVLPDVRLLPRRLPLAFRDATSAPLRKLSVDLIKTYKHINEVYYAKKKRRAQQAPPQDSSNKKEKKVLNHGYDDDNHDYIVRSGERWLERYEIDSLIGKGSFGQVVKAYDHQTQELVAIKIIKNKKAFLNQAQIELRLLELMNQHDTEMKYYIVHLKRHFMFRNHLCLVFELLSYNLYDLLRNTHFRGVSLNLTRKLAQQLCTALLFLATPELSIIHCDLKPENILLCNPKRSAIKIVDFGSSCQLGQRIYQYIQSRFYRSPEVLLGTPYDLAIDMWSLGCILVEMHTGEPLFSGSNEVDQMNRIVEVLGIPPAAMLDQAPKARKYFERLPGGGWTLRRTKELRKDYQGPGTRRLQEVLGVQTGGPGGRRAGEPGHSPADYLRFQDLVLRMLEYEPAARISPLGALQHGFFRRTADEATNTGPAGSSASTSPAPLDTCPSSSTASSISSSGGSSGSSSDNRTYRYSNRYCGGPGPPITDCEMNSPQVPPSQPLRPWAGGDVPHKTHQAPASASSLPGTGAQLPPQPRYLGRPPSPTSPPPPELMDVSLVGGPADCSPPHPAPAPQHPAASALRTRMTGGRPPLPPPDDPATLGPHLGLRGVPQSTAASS
TEST: Kinase panel study
Format: biochemical
CONDITION: DYRK1B; compound at 10µM; read-out: % of Inhibition
EXPERIMENTAL_READOUT: inhibition at 10 µM (%)

// worked examples, inhibition at 10 µM included
{"COMPOUND": "COc1ccc2c(c1)c1ccnc3c4nc(OC)ccc4c(=O)n2c13 [MW01-E6]", "inhibition at 10 µM / %": 20}
{"COMPOUND": "O=c1c2cnccc2c2nccc3c4cc(O)ccc4n1c32 [MW01-E18]", "inhibition at 10 µM / %": 68}
{"COMPOUND": "O=c1c2cc(O)ccc2c2nccc3c4cc(O)ccc4n1c32 [MW01-E10]", "inhibition at 10 µM / %": 81}

a: COc1ccc2nc3c(cc2c1)c(N)nn3C(=O)c1cccc(N(C)C)c1 [MW05-E2]
b: COc1ccc2c(c1)c1ccnc3c4ccnc(OC)c4c(=O)n2c13 [MW01-E14]
# compare inhibition at 10 µM for a vs b ; return the one with the smaller value When you have decided, please share the label of that item.
b
